- assay.method.text: molar heat capacity at constant pressure
- applied.conditions: 333.15 K; 101.33 kPa; Crystal; Small sample (50 mg) DSC
readout.name: molar heat capacity at constant pressure (J/K/mol)

OC[C@@H](O)[C@@H](O)CO [meso-1,2,3,4-butanetetrol] ... 186.31
OC[C@@H](O)C(O)[C@H](O)CO [D-arabitol] ... 233.08
OC[C@@H](O)[C@H](O)[C@@H](O)CO [xylitol] ... 238.98
OC[C@H](O)C(O)[C@@H](O)CO [L-(-)-arabitol] ... 241.19
OC[C@@H](O)[C@@H](O)[C@H](O)[C@H](O)CO [D-mannitol] ... 261.83
O[C@H]1[C@H](O)[C@@H](O)[C@H](O)[C@@H](O)[C@H]1O [cis-1,2,3,5-trans-4,6-cyclohexanehexol] ... 248.82

---

- assay.method.text: molar heat capacity at constant pressure
- applied.conditions: 80 K; 101.33 kPa; Crystal; relaxation calorimetry
readout.name: molar heat capacity at constant pressure (J/K/mol)

OC[C@@H](O)[C@@H](O)CO [meso-1,2,3,4-butanetetrol] ... 51.54
OC[C@@H](O)[C@H](O)[C@@H](O)CO [xylitol] ... 60.61
OC[C@@H](O)[C@@H](O)[C@H](O)[C@H](O)CO [D-mannitol] ... 70.77
OC[C@H](O)C(O)[C@@H](O)CO [L-(-)-arabitol] ... 62.81
O[C@H]1[C@H](O)[C@@H](O)[C@H](O)[C@@H](O)[C@H]1O [cis-1,2,3,5-trans-4,6-cyclohexanehexol] ... 55.09
OC[C@@H](O)C(O)[C@H](O)CO [D-arabitol] ... 62.48

---

- assay.method.text: molar heat capacity at constant pressure
- applied.conditions: 6 K; 101.33 kPa; Crystal; relaxation calorimetry
readout.name: molar heat capacity at constant pressure (J/K/mol)

Reference set, count: 4
OC[C@@H](O)[C@@H](O)CO [meso-1,2,3,4-butanetetrol] ... 0.1763
OC[C@@H](O)[C@H](O)[C@@H](O)CO [xylitol] ... 0.191
OC[C@@H](O)[C@@H](O)[C@H](O)[C@H](O)CO [D-mannitol] ... 0.2067
OC[C@H](O)C(O)[C@@H](O)CO [L-(-)-arabitol] ... 0.1535

[P] OC[C@@H](O)C(O)[C@H](O)CO [D-arabitol]
[Q] O[C@H]1[C@H](O)[C@@H](O)[C@H](O)[C@@H](O)[C@H]1O [cis-1,2,3,5-trans-4,6-cyclohexanehexol]
Just tell me: smaller molar heat capacity at constant pressure value, P or Q ? In your reply, give the label of the chosen option.
P

---

- applied.conditions: 130 K; 101.33 kPa; Crystal; relaxation calorimetry
readout.name: molar entropy (J/K/mol)

O[C@H]1[C@H](O)[C@@H](O)[C@H](O)[C@@H](O)[C@H]1O [cis-1,2,3,5-trans-4,6-cyclohexanehexol] ... 75.5
OC[C@H](O)C(O)[C@@H](O)CO [L-(-)-arabitol] ... 82.11
OC[C@@H](O)[C@@H](O)[C@H](O)[C@H](O)CO ... 92.42
OC[C@@H](O)[C@@H](O)CO ... 68.62
OC[C@@H](O)C(O)[C@H](O)CO ... 81.48
OC[C@@H](O)[C@H](O)[C@@H](O)CO ... 78.31

---

- assay.method.text: molar heat capacity at constant pressure
- applied.conditions: 290.15 K; 101.33 kPa; Crystal; Small sample (50 mg) DSC
readout.name: molar heat capacity at constant pressure (J/K/mol)

OC[C@@H](O)[C@@H](O)CO ... 159.93
OC[C@@H](O)[C@@H](O)[C@H](O)[C@H](O)CO ... 223.75
OC[C@@H](O)[C@H](O)[C@@H](O)CO ... 203.24
OC[C@@H](O)C(O)[C@H](O)CO ... 195.02
OC[C@H](O)C(O)[C@@H](O)CO [L-(-)-arabitol] ... 201.49
O[C@H]1[C@H](O)[C@@H](O)[C@H](O)[C@@H](O)[C@H]1O [cis-1,2,3,5-trans-4,6-cyclohexanehexol] ... 211.29

---

- assay.method.text: molar heat capacity at constant pressure
- applied.conditions: 316.15 K; 101.33 kPa; Crystal; Small sample (50 mg) DSC
readout.name: molar heat capacity at constant pressure (J/K/mol)

OC[C@@H](O)[C@H](O)[C@@H](O)CO [xylitol] ... 225.05
OC[C@@H](O)[C@@H](O)[C@H](O)[C@H](O)CO [D-mannitol] ... 246.45
O[C@H]1[C@H](O)[C@@H](O)[C@H](O)[C@@H](O)[C@H]1O [cis-1,2,3,5-trans-4,6-cyclohexanehexol] ... 233.85
OC[C@@H](O)[C@@H](O)CO [meso-1,2,3,4-butanetetrol] ... 176.2
OC[C@H](O)C(O)[C@@H](O)CO [L-(-)-arabitol] ... 223.18
OC[C@@H](O)C(O)[C@H](O)CO [D-arabitol] ... 216.44

---

- applied.conditions: 100 K; 101.33 kPa; Crystal; relaxation calorimetry
readout.name: molar entropy (J/K/mol)

O[C@H]1[C@H](O)[C@@H](O)[C@H](O)[C@@H](O)[C@H]1O [cis-1,2,3,5-trans-4,6-cyclohexanehexol] ... 53.84
OC[C@@H](O)[C@@H](O)CO [meso-1,2,3,4-butanetetrol] ... 49.83
OC[C@@H](O)[C@H](O)[C@@H](O)CO [xylitol] ... 55.48
OC[C@H](O)C(O)[C@@H](O)CO [L-(-)-arabitol] ... 58.89
OC[C@@H](O)[C@@H](O)[C@H](O)[C@H](O)CO [D-mannitol] ... 66.42
OC[C@@H](O)C(O)[C@H](O)CO [D-arabitol] ... 58.42

---

- assay.method.text: molar heat capacity at constant pressure
- applied.conditions: 273.15 K; 101.33 kPa; Crystal; relaxation calorimetry
readout.name: molar heat capacity at constant pressure (J/K/mol)

OC[C@@H](O)[C@@H](O)CO ... 152
OC[C@H](O)C(O)[C@@H](O)CO [L-(-)-arabitol] ... 188.71
O[C@H]1[C@H](O)[C@@H](O)[C@H](O)[C@@H](O)[C@H]1O [cis-1,2,3,5-trans-4,6-cyclohexanehexol] ... 199.08
OC[C@@H](O)C(O)[C@H](O)CO ... 185.17
OC[C@@H](O)[C@@H](O)[C@H](O)[C@H](O)CO ... 212.01
OC[C@@H](O)[C@H](O)[C@@H](O)CO ... 189.56

---

- assay.method.text: Molar enthalpy of transition or fusion
- applied.conditions: Crystal; DSC
readout.name: Molar enthalpy of transition or fusion (kcal/mol)

Solved cases (2 shown):
OC[C@@H](O)[C@H](O)[C@@H](O)CO [xylitol] ... 9.44
OC[C@@H](O)C(O)[C@H](O)CO [D-arabitol] ... 9.46

[P] OC[C@@H](O)[C@@H](O)[C@H](O)[C@H](O)CO [D-mannitol]
[Q] OC[C@H](O)C(O)[C@@H](O)CO [L-(-)-arabitol]
Form field 'greater Molar enthalpy of transition or fusion' accepts P or Q ; which applies? Pick one; state its label.
P

---

- applied.conditions: 65 K; 101.33 kPa; Crystal; relaxation calorimetry
readout.name: molar entropy (J/K/mol)

O[C@H]1[C@H](O)[C@@H](O)[C@H](O)[C@@H](O)[C@H]1O [cis-1,2,3,5-trans-4,6-cyclohexanehexol] ... 29.66
OC[C@@H](O)[C@@H](O)CO ... 27.37
OC[C@@H](O)[C@H](O)[C@@H](O)CO ... 29.01
OC[C@H](O)C(O)[C@@H](O)CO [L-(-)-arabitol] ... 31.48
OC[C@@H](O)C(O)[C@H](O)CO ... 31.16
OC[C@@H](O)[C@@H](O)[C@H](O)[C@H](O)CO ... 35.57

---

- assay.method.text: molar heat capacity at constant pressure
- applied.conditions: 270 K; 101.33 kPa; Crystal; relaxation calorimetry
readout.name: molar heat capacity at constant pressure (J/K/mol)

OC[C@@H](O)[C@H](O)[C@@H](O)CO ... 187.42
OC[C@@H](O)[C@@H](O)[C@H](O)[C@H](O)CO ... 209.71
OC[C@H](O)C(O)[C@@H](O)CO [L-(-)-arabitol] ... 186.56
OC[C@@H](O)[C@@H](O)CO ... 150.4
O[C@H]1[C@H](O)[C@@H](O)[C@H](O)[C@@H](O)[C@H]1O [cis-1,2,3,5-trans-4,6-cyclohexanehexol] ... 196.73
OC[C@@H](O)C(O)[C@H](O)CO ... 183.17

---

- assay.method.text: molar heat capacity at constant pressure
- applied.conditions: 336.15 K; 101.33 kPa; Crystal; Small sample (50 mg) DSC
readout.name: molar heat capacity at constant pressure (J/K/mol)

OC[C@@H](O)C(O)[C@H](O)CO ... 236.36
OC[C@@H](O)[C@@H](O)[C@H](O)[C@H](O)CO ... 263.97
OC[C@@H](O)[C@H](O)[C@@H](O)CO ... 241.37
OC[C@@H](O)[C@@H](O)CO ... 187.85
O[C@H]1[C@H](O)[C@@H](O)[C@H](O)[C@@H](O)[C@H]1O [cis-1,2,3,5-trans-4,6-cyclohexanehexol] ... 251.33

These data points were gathered from the NIST ThermoML archive (doi:10.1016/j.jct.2017.08.004).
